biological target: HER2 YVMA (Homo sapiens, UniProt P04626, INS775YVMA); construct: expressed in transfected cells; host or cells: BaF3 (murine pro-B); assay: BaF3 cell proliferation assay, HER2 YVMA (Table B); format: cell-based; settings: potency code, 3 days, CellTiterGlo, read-out: HER2 YVMA (Activity for Inhibiting HER2)
Sequence (P04626 with tags, fused parts or gaps INS775YVMA): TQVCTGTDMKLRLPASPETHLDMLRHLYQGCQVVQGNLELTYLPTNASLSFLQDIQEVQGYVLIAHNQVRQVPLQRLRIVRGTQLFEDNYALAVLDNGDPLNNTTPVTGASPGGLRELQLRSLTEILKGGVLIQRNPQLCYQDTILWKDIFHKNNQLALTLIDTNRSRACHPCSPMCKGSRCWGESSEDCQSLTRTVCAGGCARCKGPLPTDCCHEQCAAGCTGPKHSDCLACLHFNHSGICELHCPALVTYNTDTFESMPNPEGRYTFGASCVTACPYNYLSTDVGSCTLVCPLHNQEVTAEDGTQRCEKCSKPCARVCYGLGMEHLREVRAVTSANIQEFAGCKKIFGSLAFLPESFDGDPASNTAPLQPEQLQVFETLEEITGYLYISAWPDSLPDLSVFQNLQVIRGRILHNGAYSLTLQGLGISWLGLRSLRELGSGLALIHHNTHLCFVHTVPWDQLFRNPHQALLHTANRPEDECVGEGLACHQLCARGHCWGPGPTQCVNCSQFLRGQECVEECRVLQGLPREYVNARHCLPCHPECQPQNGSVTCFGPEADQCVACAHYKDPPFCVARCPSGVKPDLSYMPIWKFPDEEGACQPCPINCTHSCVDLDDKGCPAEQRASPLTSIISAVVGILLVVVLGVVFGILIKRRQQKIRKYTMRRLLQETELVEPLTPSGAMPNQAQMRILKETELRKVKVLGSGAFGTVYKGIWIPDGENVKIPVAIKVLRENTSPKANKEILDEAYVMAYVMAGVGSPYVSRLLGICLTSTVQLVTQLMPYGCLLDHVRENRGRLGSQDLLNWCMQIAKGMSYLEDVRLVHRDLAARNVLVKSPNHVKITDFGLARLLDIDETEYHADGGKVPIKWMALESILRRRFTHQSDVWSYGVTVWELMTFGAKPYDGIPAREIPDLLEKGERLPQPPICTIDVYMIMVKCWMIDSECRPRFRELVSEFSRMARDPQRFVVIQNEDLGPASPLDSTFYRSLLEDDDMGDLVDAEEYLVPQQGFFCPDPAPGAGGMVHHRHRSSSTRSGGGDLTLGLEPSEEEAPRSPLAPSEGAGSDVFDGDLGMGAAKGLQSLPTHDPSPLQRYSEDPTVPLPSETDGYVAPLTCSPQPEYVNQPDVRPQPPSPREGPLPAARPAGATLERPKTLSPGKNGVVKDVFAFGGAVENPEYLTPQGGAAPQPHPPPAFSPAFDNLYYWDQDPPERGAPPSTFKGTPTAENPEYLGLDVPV
Readings of IC50 for the listed molecules

C=CC(=O)Nc1cc2c(Nc3ccc(OCc4cccc(F)c4)c(Cl)c3)ncnc2cc1OCCCN1C[C@@H]2C[C@H]1CO2 [compound 159]	300 to 500 nM

Continue with the next molecule.
// query IC50 value for entry C=CC(=O)Nc1cc2c(Nc3ccc(OCc4cccc(F)n4)c(Cl)c3)ncnc2cc1OCCCN1C[C@@H]2C[C@H]1CO2 [compound 161]
100 to 200 nM

* * *

biological target: HER2 WT (Homo sapiens, UniProt P04626); assay: Activity for inhibiting HER2 (Table B), HER2 WT; assay type: cell-based; settings: Table B; read-out: HER2 WT, potency code (IC50)
Sequence (P04626 23-1255): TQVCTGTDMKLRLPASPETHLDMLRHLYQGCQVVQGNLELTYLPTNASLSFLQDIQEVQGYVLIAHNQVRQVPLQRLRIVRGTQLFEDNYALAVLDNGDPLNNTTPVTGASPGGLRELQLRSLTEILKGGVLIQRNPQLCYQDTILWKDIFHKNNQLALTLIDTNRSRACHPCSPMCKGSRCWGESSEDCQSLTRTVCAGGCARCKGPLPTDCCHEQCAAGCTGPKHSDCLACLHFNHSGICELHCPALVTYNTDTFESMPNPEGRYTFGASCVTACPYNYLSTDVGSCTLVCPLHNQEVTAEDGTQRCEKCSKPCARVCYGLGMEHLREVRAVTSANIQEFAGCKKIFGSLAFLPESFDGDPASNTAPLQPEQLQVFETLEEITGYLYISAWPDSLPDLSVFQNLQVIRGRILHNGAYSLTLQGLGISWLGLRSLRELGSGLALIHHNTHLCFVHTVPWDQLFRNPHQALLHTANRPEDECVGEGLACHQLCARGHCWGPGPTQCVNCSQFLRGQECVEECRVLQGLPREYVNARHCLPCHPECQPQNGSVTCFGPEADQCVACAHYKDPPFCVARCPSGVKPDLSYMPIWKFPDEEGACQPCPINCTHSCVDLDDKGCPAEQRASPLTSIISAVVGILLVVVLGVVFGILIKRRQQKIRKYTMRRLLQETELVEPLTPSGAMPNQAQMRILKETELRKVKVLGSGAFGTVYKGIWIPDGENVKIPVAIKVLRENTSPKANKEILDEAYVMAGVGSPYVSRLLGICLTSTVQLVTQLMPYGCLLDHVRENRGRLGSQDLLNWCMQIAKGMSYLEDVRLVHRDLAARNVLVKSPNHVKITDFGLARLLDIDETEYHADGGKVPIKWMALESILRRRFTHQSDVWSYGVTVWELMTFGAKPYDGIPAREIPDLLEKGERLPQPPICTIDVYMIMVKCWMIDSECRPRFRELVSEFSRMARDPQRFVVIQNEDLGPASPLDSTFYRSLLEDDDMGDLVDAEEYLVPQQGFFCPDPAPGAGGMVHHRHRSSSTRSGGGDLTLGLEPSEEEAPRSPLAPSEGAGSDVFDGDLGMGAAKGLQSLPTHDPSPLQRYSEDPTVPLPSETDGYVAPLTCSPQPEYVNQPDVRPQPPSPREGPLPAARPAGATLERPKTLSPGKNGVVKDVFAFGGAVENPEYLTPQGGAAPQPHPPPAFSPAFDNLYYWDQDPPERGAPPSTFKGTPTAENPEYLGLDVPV
property.name: IC50

// below: answered compounds
C=CC(=O)Nc1cc2c(Nc3ccc(OCc4ccccn4)c(Cl)c3)ncnc2cc1N1CCC(N(C)C)CC1	10 to 20 nM
C=CC(=O)Nc1cc2c(Nc3cc(Cl)c(OCc4cccc(F)c4)cc3F)ncnc2cc1OCCN1CCOCC1	5 to 10 nM
C=CC(=O)Nc1cc2c(Nc3ccc(OCc4ccccn4)c(Cl)c3)ncnc2cc1N1CCC2(CCN(C)C2)C1 (stereo not drawn)	20 to 30 nM
C=CC(=O)Nc1cc2c(Nc3ccc(OCc4ccccn4)c(Cl)c3)ncnc2cc1C#CC(C)(C)N1CCN(C)CC1	10 to 20 nM
C=CC(=O)Nc1cc2c(Nc3ccc(OCc4ccccn4)cc3F)ncnc2cc1OC1CCN(C)C1 (stereo not drawn)	30 to 50 nM

// query IC50 value for entry C=CC(=O)Nc1cc2c(Nc3ccc(OCc4ccccn4)c(Cl)c3)ncnc2cc1OCCN1CC2COCC2C1 (stereo not drawn)
5 to 10 nM

Field entry: CC#CC(=O)Nc1cc2c(Nc3ccc(OCc4ccccn4)c(Cl)c3)ncnc2cc1N(C)CCN1CCOCC1
20 to 30 nM

Field entry: C=CC(=O)Nc1cc2c(Nc3ccc(OCc4ccccn4)c(Cl)c3)ncnc2cc1OCCN(C)CC
< 5 nM

Field entry: C=CC(=O)Nc1cc2c(Nc3ccc(OCc4ccccn4)c(Cl)c3)ncnc2cc1OCCN(C)C1CCOC1 (stereo not drawn)
5 to 10 nM

Field entry: C=CC(=O)Nc1cc2c(Nc3ccc(OCc4ccccn4)c(Cl)c3)ncnc2cc1N1CCN2CCC1C2 (stereo not drawn)
50 to 100 nM

Field entry: C=CC(=O)Nc1cc2c(Nc3ccc(OCc4ccccn4)c(Cl)c3)ncnc2cc1OCC1(N(C)C)CC1
5 to 10 nM

Field entry: C=CC(=O)Nc1cc2c(Nc3cc(Cl)c(OCc4ccccn4)cc3F)ncnc2cc1OC1CCN(C)C1 (stereo not drawn)
5 to 10 nM

Field entry: C=CC(=O)Nc1cc2c(Nc3ccc(OCc4cccc(F)c4)c(Cl)c3)ncnc2cc1N(C)CCN(C)C
50 to 100 nM

Field entry: C=CC(=O)Nc1cc2c(Nc3ccc(OCc4ccccn4)c(Cl)c3)ncnc2cc1OCCN1CCN(C)CC1
< 5 nM

Field entry: C=CC(=O)Nc1cc2c(Nc3ccc(OCc4ccccn4)cc3F)ncnc2cc1OCCN1CCOCC1
20 to 30 nM

* * *

Readings of IC50 for the listed compounds
target: HER2 S310F (Homo sapiens, UniProt P04626, S310F); construct: expressed in transfected cells; host or cells: BaF3 (murine pro-B); assay: Activity for inhibiting HER2 (Table B), HER2 S310F; assay type: cell-based; settings: read-out: HER2 S310F, potency code (IC50)
Sequence (P04626 23-1255 S310F): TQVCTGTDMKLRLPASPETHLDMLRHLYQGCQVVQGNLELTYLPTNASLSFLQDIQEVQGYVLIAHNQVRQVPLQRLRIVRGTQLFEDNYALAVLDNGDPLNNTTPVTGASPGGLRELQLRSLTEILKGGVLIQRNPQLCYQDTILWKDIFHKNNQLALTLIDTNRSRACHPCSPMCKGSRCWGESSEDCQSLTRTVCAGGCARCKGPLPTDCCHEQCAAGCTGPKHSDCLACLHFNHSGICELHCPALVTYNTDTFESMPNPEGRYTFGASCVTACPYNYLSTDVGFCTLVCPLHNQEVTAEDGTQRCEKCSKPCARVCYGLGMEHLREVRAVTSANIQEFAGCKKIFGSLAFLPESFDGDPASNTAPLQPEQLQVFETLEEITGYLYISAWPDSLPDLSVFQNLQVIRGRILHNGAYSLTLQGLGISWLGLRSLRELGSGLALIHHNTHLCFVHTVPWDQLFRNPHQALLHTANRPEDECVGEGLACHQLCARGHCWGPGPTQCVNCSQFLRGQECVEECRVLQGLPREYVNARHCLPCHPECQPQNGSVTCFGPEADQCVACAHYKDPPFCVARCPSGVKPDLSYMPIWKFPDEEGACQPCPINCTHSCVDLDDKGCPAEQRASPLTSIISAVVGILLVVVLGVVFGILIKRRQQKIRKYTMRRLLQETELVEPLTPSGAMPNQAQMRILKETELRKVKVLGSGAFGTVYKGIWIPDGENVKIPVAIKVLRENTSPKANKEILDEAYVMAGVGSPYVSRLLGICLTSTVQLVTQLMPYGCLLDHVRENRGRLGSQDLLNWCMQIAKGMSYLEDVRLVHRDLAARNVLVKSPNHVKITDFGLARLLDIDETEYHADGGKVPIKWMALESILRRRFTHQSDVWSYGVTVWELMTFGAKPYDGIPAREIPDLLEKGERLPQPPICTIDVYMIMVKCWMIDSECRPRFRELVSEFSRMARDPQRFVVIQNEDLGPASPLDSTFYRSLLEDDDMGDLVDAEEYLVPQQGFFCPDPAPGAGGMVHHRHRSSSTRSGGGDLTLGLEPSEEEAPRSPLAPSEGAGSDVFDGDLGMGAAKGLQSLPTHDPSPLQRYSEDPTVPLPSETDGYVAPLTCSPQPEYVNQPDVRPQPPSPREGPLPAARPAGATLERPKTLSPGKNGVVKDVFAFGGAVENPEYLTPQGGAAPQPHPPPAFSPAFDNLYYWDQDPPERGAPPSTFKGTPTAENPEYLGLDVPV

// below: answered compounds
C=CC(=O)Nc1cc2c(Nc3ccc(OCc4ccccn4)cc3F)ncnc2cc1OCCN1CCOCC1	50 to 100 nM
C=CC(=O)Nc1cc2c(Nc3ccc(OCc4ccccn4)c(Cl)c3)ncnc2cc1O[C@@H]1CCN(C)C1	5 to 10 nM
C=CC(=O)Nc1cc2c(Nc3ccc(OCc4ccccn4)c(Cl)c3)ncnc2cc1OCC1(CN(C)C)CC1	20 to 30 nM

// query IC50 value for entry C=CC(=O)Nc1cc2c(Nc3ccc(OCc4ccccn4)c(Cl)c3)ncnc2cc1C#C[C@@H]1[C@H]2CN(C)C[C@@H]12
5 to 10 nM

* * *

target: HER2 YVMA (Homo sapiens, UniProt P04626, INS775YVMA); construct: expressed in transfected cells; host or cells: BaF3 (murine pro-B); assay: Activity for inhibiting HER2 (Table B), HER2 YVMA; type: cell-based; details: read-out: HER2 YVMA, potency code (IC50)
pIC50: −log10 of the molar value.
Readings of pIC50 for the listed compounds

C=CC(=O)Nc1cc2c(Nc3ccc(OCc4ccccn4)c(Cl)c3)ncnc2cc1OCCN1C2CCC1COC2	6.70 to 7.00
C=CC(=O)Nc1cc2c(Nc3ccc(OCc4cccnn4)c(Cl)c3)ncnc2cc1OCCN1CCOCC1	6.30 to 6.52
C=CC(=O)Nc1cc2c(Nc3ccc(OCc4ccccn4)c(Cl)c3)ncnc2cc1OCCN1CC2CCC(C1)O2	7.30 to 7.52
C=CC(=O)Nc1cc2c(Nc3ccc(OCc4ccccn4)c(Cl)c3)ncnc2cc1OCCN1CC(OC)C1	7.30 to 7.52
C=CC(=O)Nc1cc2c(Nc3ccc(OCc4ccccn4)c(Cl)c3)ncnc2cc1OCC1(N(C)C)CC1	6.70 to 7.00
C=CC(=O)Nc1cc2c(Nc3ccc(OCc4cccnn4)c(Cl)c3)ncnc2cc1OCCN1CC(OC)C1	6.30 to 6.52

// query pIC50 value for entry C=CC(=O)Nc1cc2c(Nc3ccc(OCc4ccccn4)c(Cl)c3)ncnc2cc1OC[C@H]1C[C@@H]2CN(C)C[C@@H]2C1
7.00 to 7.30

Field entry: C=CC(=O)Nc1cc2c(Nc3cc(Cl)c(OCc4cccc(F)c4)cc3F)ncnc2cc1OCCCN1CC(OC)C1
6.30 to 6.52

* * *

molecular target: UniProt P04626; assay: Activity for inhibiting HER2 (Table B), HER2 WT; assay type: cell-based; details: text lists of compounds; read-out: IC50 value for inhibiting wild-type HER2
pIC50: −log10 of the molar value.
Readings of pIC50 for the listed molecules

C=CC(=O)Nc1cc2c(Nc3ccc(OCc4ccccn4)c(Cl)c3)c(C#N)cnc2cc1OCCN1CCOCC1	≥ 7.30
C=CC(=O)Nc1cc2c(Nc3ccc(OCc4ccccn4)c(Cl)c3)ncnc2cc1OCCN1CCC(O)C1 (stereo not shown)	≥ 8.30
C=CC(=O)Nc1cc2c(Nc3ccc(OCc4ccccn4)c(Cl)c3)ncnc2cc1OCC1CCCN1C (stereo not shown)	≥ 7.70
C=CC(=O)Nc1cc2c(Nc3ccc(OCc4ccccn4)c(Cl)c3)ncnc2cc1N1CCC2(CCN(C)C2)C1 (stereo not shown)	≥ 7.30
C=CC(=O)Nc1cc2c(Nc3ccc(OCc4ccccn4)c(Cl)c3)ncnc2cc1OCCN1CCCC1	≥ 8.00
CC#CC(=O)Nc1cc2c(Nc3ccc(OCc4ccccn4)c(Cl)c3)ncnc2cc1OC1CCN(C)C1 (stereo not shown)	≥ 8.00

Continue with the next molecule.
Find pIC50 (UniProt P04626) for the entry C=CC(=O)Nc1cc2c(Nc3ccc(OCc4ccccn4)c(Cl)c3)ncnc2cc1OCC1CCCN1 (stereo not shown)
≥ 7.70

* * *

Readings of IC50 for the listed compounds
biological target: UniProtKB P04626; experiment: Activity for inhibiting HER2 (Table B), HER2 WT; format: cell-based; conditions: Table B; read-out: HER2 WT, potency code (IC50)

// below: answered compounds
C=CC(=O)Nc1cc2c(Nc3ccc(OCc4ccccn4)c(Cl)c3)ncnc2cc1OC1CN(C)C1	0.01 to 0.02 µM
C=CC(=O)Nc1cc2c(Nc3ccc(OCc4ccccn4)c(Cl)c3)ncnc2cc1OCCN1CCC(O)C1 (centres unmarked)	< 0.005 µM
C=CC(=O)Nc1cc2c(Nc3ccc(Oc4ccc(Cl)cc4)cc3)ncnc2cc1OCCN1CCOCC1	0.1 to 0.2 µM
C=CC(=O)Nc1cc2c(Nc3ccc(OCc4cccc(C(F)(F)F)n4)c(Cl)c3)ncnc2cc1OCCN1CCOCC1	0.1 to 0.2 µM
C=CC(=O)Nc1cc2c(Nc3ccc(Oc4cccc(Cl)c4)cc3)ncnc2cc1OCCN1CCOCC1	0.05 to 0.1 µM
C=CC(=O)Nc1cc2c(Nc3ccc(OCc4ccccn4)c(Cl)c3)ncnc2cc1OCCN1CC(F)C1	0.01 to 0.02 µM
C=CC(=O)Nc1cc2c(Nc3ccc(OCc4ccccn4)c(Cl)c3)ncnc2cc1N1CCN(C)CC1	0.03 to 0.05 µM

Continue with the next compound.
// query IC50 value for entry C=CC(=O)Nc1cc2c(Nc3ccc(OCc4ccccn4)c(Cl)c3)c(C#N)cnc2cc1OCCN1CCOCC1
0.03 to 0.05 µM

* * *

biological target: HER2 S310F (Homo sapiens, UniProt P04626, S310F); construct: expressed in transfected cells; host or cells: BaF3 (murine pro-B); test: Activity for inhibiting HER2 (Table B), HER2 S310F; format: cell-based; conditions: read-out: HER2 S310F, potency code (IC50)
pIC50: −log10 of the molar value.
property.name: pIC50

// query pIC50 value for entry C=CC(=O)Nc1cc2c(Nc3ccc(OCc4ccccn4)c(Cl)c3)ncnc2cc1C#CC1CC2(C1)CN(C)C2
7.30 to 7.52

Field entry: C=CC(=O)Nc1cc2c(Nc3cc(Cl)c(OCc4ccccn4)cc3F)ncnc2cc1OC1CCN(C)C1 (stereo not drawn)
7.52 to 7.70

Field entry: C=CC(=O)Nc1cc2c(Nc3ccc(OCc4ccccn4)c(Cl)c3)ncnc2cc1OCCN1CCC(N(C)C)CC1
7.30 to 7.52
